inhibition at 100 µM overview
- system-name: COX-2 (Ovis aries, UniProt P79208)
- Sequence (P79208 17-603): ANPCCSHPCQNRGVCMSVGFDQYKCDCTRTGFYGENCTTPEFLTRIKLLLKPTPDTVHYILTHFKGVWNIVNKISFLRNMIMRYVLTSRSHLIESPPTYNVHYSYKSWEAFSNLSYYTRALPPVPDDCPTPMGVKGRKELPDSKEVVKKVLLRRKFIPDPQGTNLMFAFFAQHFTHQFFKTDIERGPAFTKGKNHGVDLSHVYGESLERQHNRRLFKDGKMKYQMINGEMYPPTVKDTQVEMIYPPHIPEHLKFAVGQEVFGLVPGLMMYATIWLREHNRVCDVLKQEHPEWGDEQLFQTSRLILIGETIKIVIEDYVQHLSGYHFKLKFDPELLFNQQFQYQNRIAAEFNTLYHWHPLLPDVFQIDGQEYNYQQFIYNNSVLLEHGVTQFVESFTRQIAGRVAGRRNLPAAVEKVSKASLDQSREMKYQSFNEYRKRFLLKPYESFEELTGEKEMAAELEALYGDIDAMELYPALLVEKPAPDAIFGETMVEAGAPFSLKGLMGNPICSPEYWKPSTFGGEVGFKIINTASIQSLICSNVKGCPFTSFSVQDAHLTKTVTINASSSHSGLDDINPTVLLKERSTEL
- assay-procedure: Colorimetric COX
- Format: biochemical, ovine
- measurement-context: read-out: % inhibition of COX, COX-2
readout-label: inhibition at 100 µM (%)

>>> print(df.to_string())
                                   compound  result
0  CC(C)COC(=O)NC[C@@H](O)[C@@H]1CCc2cc(F)ccc2O1 [Compound 9c]    24.3
1  O=[N+]([O-])c1cc(S(=O)(=O)NC[C@@H](O)[C@@H]2CCc3cc(F)ccc3O2)ccc1Cl [Compound 8d]    39.3
2  O=S(=O)(NC[C@@H](O)[C@@H]1CCc2cc(F)ccc2O1)c1cccs1 [Compound 8c]    40.4
3  O=S(=O)(NC[C@@H](O)[C@@H]1CCc2cc(F)ccc2O1)c1ccc(F)cc1 [Compound 8a]    23.5

Just for reference, paper PMC8694313 is where these values come from.
